Origin of measurements: PubChem BioAssay AID624330

- assay-system: Rac GTPase-activating protein 1 (Homo sapiens)
- test-summary: blockers of MgcRacGAP-driven Rac1 GTP hydrolysis – biochemical, ADP Hunter fluorescence, primary and confirmatory, confirmation (AID 624330);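 note: fluorescence reports GDP produced by GAP-driven GTP hydrolysis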
- condition-parameters: MgcRacGAP-stimulated Rac1 GTP hydrolysis, at 30 µM, stronger effect = higher value, GST-tagged Rac1 F28L mutant substrate
Hit rate of the full screen: of about 340,000 compounds, about 2,100 (0.62%) were called active. A selection follows. Potency and affinity values are given separately.
I'd appreciate it if you could supply inhibition values for the items below.
Numeric answer only, unit % assumed.

Q) Suppose we examine the compound `O=C(NC1CCN(C(=O)N2c3ccccc3Sc3ccccc32)CC1)c1ccco1` ; what inhibition value has been reported?
A) 1.56

Q) Repeat for the following compound: COc1ccccc1N1C(=O)CC(Sc2ccccc2N)C1=O (stereo unspecified)
A) 2.06

Q) Repeat for the following compound: `O=C(NC1CCN(C(=O)N2c3ccccc3Sc3ccccc32)CC1)c1ccccc1Cl`
A) 23.6

Q) Repeat for the following compound: `COc1ccc(C(=O)CSc2nnc(-c3cccnc3)n2Cc2ccco2)cc1`
A) 9.77

Q) Repeat for the following compound: `S=C(c1ccc(-c2ccc(Cl)cc2Cl)o1)N1CCCCC1`
A) 10.8

Q) Repeat for the following compound: CC1=C(C(=O)N2CCCC(CCC(=O)NCc3ccc(F)c(F)c3)C2)OCCO1 (stereo unspecified)
A) 6.22
